Target: Adrenergic receptor alpha-2 (Rattus norvegicus) (UniProt P22086+P19328+P22909)
Experiment: Ratio of binding affinity towards Alpha-2 and alpha-1 adrenergic receptor
Assay type: protein assay
quantity: Ratio
Please give only the number in your answer, with no unit.

INPUT: Data request, read-out Ratio, for "COc1ccccc1N1CCN(CCCCn2ncc(N3CCN(C(=O)c4ccco4)CC3)c(Cl)c2=O)CC1"
OUTPUT: 26

INPUT: Consider next the compound "COc1ccccc1OCCN1CCN(c2ccc(=O)n(CCCCN3CCN(c4ccccc4Cl)CC3)n2)CC1" in the same way.
OUTPUT: 86.7

INPUT: Note, next up: "COc1ccccc1OCCN1CCN(c2ccc(=O)n(CCCCCN3CCN(c4ccccc4Cl)CC3)n2)CC1"
OUTPUT: 20

INPUT: Lookup "COc1ccccc1OCCN1CCN(c2ccc(=O)n(CCCCCCCN3CCN(c4ccccc4Cl)CC3)n2)CC1"
OUTPUT: 9.3

INPUT: Next record, please: "COc1ccccc1OCCN1CCN(c2ccc(=O)n(CCCCN3CCN(c4ccccc4OC)CC3)n2)CC1"
OUTPUT: 103

INPUT: And "O=C(c1ccco1)N1CCN(c2ccc(=O)n(CCN3CCN(c4ccccc4Cl)CC3)n2)CC1" ?
OUTPUT: 1.5

INPUT: Field entry: "COc1ccccc1OCCN1CCN(c2cnn(CCCCCN3CCN(c4ccccc4OC)CC3)c(=O)c2Cl)CC1"
OUTPUT: 3.8

INPUT: Follow-up entry: "O=C(c1ccco1)N1CCN(c2cnn(CCCCCCCN3CCN(c4ccccc4Cl)CC3)c(=O)c2Cl)CC1"
OUTPUT: 3.1

INPUT: Okay, and "O=C(c1ccco1)N1CCN(c2ccc(=O)n(CCCCCCCN3CCN(c4ccccc4Cl)CC3)n2)CC1" ?
OUTPUT: 4.2

INPUT: Could you do the same for "O=C(c1ccco1)N1CCN(c2cnn(CCN3CCN(c4ccccc4Cl)CC3)c(=O)c2Cl)CC1" , please?
OUTPUT: 38.4

INPUT: Input "O=C(c1ccco1)N1CCN(c2ccc(=O)n(CCCCCN3CCN(c4ccccc4Cl)CC3)n2)CC1"
OUTPUT: 7.9

INPUT: Lookup "COc1ccccc1OCCN1CCN(c2cnn(CCCCN3CCN(c4ccccc4Cl)CC3)c(=O)c2Cl)CC1"
OUTPUT: 4

INPUT: Also "COc1ccccc1OCCN1CCN(c2ccc(=O)n(CCCN3CCN(c4ccccc4Cl)CC3)n2)CC1" ?
OUTPUT: 46.5

INPUT: Further, for "COc1ccccc1OCCN1CCN(c2ccc(=O)n(CCCCCCCN3CCN(c4ccccc4OC)CC3)n2)CC1" ?
OUTPUT: 20

INPUT: // next record "COc1ccccc1OCCN1CCN(c2cnn(CCCCCCCN3CCN(c4ccccc4Cl)CC3)c(=O)c2Cl)CC1"
OUTPUT: 2.7

INPUT: Next compound: "COc1ccccc1N1CCN(CCCCCn2ncc(N3CCN(C(=O)c4ccco4)CC3)c(Cl)c2=O)CC1"
OUTPUT: 12.3

INPUT: For "COc1ccccc1OCCN1CCN(c2ccc(=O)n(CCCCCCN3CCN(c4ccccc4Cl)CC3)n2)CC1" then?
OUTPUT: 16.5

INPUT: Same for "COc1ccccc1OCCN1CCN(c2cnn(CCCN3CCN(c4ccccc4OC)CC3)c(=O)c2Cl)CC1"
OUTPUT: 17

----------
Biological target: Adrenergic receptor alpha-2 (Rattus norvegicus) (UniProt P22086+P19328+P22909)
Test: Ratio of binding affinity towards Alpha-2 and alpha-1 adrenergic receptor
Format: protein assay
Decision: Ratio compared against 5; not below it gives rule met, below it gives rule not met.

INPUT: Does "COc1ccccc1OCCN1CCN(c2ccc(=O)n(CCCCCCN3CCN(c4ccccc4OC)CC3)n2)CC1" have a reported Ratio of at least 5?
OUTPUT: rule met

INPUT: Queued: "O=C(c1ccco1)N1CCN(c2ccc(=O)n(CCCCN3CCN(c4ccccc4Cl)CC3)n2)CC1"
OUTPUT: rule not met

INPUT: How about this compound: "COc1ccccc1OCCN1CCN(c2cnn(CCCCCCCN3CCN(c4ccccc4OC)CC3)c(=O)c2Cl)CC1"
OUTPUT: rule not met

INPUT: Another compound to check: "COc1ccccc1N1CCN(CCCCCCn2nc(N3CCN(C(=O)c4ccco4)CC3)ccc2=O)CC1"
OUTPUT: rule met
